Reference source: patent US8247530B2

Biological target: MC1-R (B-16 mouse melanoma cells) (Mus musculus)
Construct: B-16 mouse melanoma cells (containing MC1-R); endogenous in cells; host or cells: B-16 mouse melanoma cells
Sequence (Q01727 whole entry): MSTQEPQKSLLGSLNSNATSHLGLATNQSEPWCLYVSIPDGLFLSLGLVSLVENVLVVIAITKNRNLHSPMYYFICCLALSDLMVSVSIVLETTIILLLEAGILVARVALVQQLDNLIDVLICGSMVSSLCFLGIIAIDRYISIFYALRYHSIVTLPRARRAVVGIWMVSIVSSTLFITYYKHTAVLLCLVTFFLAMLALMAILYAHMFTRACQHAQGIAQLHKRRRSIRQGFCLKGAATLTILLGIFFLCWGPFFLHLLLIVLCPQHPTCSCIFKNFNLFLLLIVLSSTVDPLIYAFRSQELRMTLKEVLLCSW
Assay: cAMP functional assay for agonist/antagonist status, MC1-R
Format: cell-based
Settings: cAMP assay
Where a SMILES comes first, the peptide text is derived from it. Bridges are numbered along the chain shown (N, C = ends). [ ]: non-standard residue; d: D form. 1Nal = N[C@@H](Cc1cccc2ccccc12)C(=O)O

{"columns": ["Molecule", "Target Desc", "agonist/antagonist status as to MC1-R"],
 "data": [
  ["CC(=O)N[C@H]1CC(=O)NCCCC[C@@H](C(=O)N(C)C)NC(=O)[C@H](Cc2cccc3ccccc23)NC(=O)[C@H](CCCNC(=N)N)NC(=O)[C@@H](Cc2ccccc2)NC(=O)[C@H](Cc2c[nH]c3ccccc23)NC1=O [Example 15] (Ac-DW[dF]R[1Nal]K-NMe2; lactam 1-6 (inferred))", "MC1-R (B-16 mouse melanoma cells) (Mus musculus)", "inactive"],
  ["CCNC(=O)[C@@H]1CCCCNC(=O)C[C@H](NC(C)=O)C(=O)N[C@@H](Cc2c[nH]c3ccccc23)C(=O)N[C@H](Cc2ccccc2)C(=O)N[C@@H](CCCNC(=N)N)C(=O)N[C@@H](Cc2cccc3ccccc23)C(=O)N1 [Example 14] (Ac-DW[dF]R[1Nal]K-NHEt; lactam 1-6 (inferred))", "MC1-R (B-16 mouse melanoma cells) (Mus musculus)", "inactive"]
]}

----------
Target: hMC3-R (HEK-293 cells) (Homo sapiens, UniProt P41968)
Construct: expressed in transfected cells; host or cells: HEK-293
Sequence (P41968 whole entry): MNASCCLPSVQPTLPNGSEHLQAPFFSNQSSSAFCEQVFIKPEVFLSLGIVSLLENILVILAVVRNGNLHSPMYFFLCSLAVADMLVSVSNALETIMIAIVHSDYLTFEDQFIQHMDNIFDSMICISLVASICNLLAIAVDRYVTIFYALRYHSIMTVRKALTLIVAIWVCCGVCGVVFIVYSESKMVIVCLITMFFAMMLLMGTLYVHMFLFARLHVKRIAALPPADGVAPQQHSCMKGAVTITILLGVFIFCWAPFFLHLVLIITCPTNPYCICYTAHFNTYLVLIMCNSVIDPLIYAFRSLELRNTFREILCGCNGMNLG
Assay: cAMP functional assay for agonist/antagonist status, MC3-R
Assay type: cell-based
Conditions: cAMP response ratio to NDP-α-MSH
Where a SMILES comes first, the peptide text is derived from it. Bridges are numbered along the chain shown (N, C = ends). [ ]: non-standard residue; d: D form. 1Nal = N[C@@H](Cc1cccc2ccccc12)C(=O)O
Reported Endpoint: efficacy relative to NDP-α-MSH, MC3-R
// no unit string in output, number only

{"columns": ["Compound", "efficacy relative to NDP-α-MSH, MC3-R"],
 "data": [
  ["CCCC[C@H](NC(C)=O)C(=O)N[C@H]1CC(=O)NCCCC[C@@H](C(=O)N(C)C)NC(=O)[C@H](Cc2cccc3ccccc23)NC(=O)[C@H](CCCNC(=N)N)NC(=O)[C@@H](Cc2ccccc2)NC(=O)[C@H](Cc2c[nH]cn2)NC1=O [Example 11]", 1.1],
  ["CC(=O)N[C@H]1CC(=O)NCCCC[C@@H](C(=O)N(C)C)NC(=O)[C@H](Cc2c[nH]c3ccccc23)NC(=O)[C@H](CCCNC(=N)N)NC(=O)[C@@H](Cc2ccccc2)NC(=O)[C@H](Cc2c[nH]cn2)NC1=O [Example 13]", 1.3],
  ["CCNC(=O)[C@@H]1CCCCNC(=O)C[C@H](NC(C)=O)C(=O)N[C@@H](Cc2c[nH]cn2)C(=O)N[C@H](Cc2ccccc2)C(=O)N[C@@H](CCCNC(=N)N)C(=O)N[C@@H](Cc2c[nH]c3ccccc23)C(=O)N1 [Example 12]", 1.0]
]}

// moving on: another record for efficacy relative to NDP-α-MSH, MC3-R
Exercise: Tell me efficacy relative to NDP-α-MSH, MC3-R of CC(=O)N[C@H]1CC(=O)NCCCC[C@@H](C(=O)N(C)C)NC(=O)[C@H](Cc2cccc3ccccc23)NC(=O)[C@H](CCCNC(=N)N)NC(=O)[C@@H](Cc2ccccc2)NC(=O)[C@H](Cc2c[nH]cn2)NC1=O [Example 17] (Ac-DH[dF]R[1Nal]K-NMe2; lactam 1-6 (inferred)) when tested on hMC3-R (HEK-293 cells) (Homo sapiens, UniProt P41968).
Key: 0.4

----------
Recorded efficacy relative to NDP-α-MSH, MC4-R, one value per entry.
Target: hMC4-R (HEK-293 cells) (Homo sapiens)
Construct: expressed in transfected cells; host or cells: HEK-293
Sequence (P32245 whole entry): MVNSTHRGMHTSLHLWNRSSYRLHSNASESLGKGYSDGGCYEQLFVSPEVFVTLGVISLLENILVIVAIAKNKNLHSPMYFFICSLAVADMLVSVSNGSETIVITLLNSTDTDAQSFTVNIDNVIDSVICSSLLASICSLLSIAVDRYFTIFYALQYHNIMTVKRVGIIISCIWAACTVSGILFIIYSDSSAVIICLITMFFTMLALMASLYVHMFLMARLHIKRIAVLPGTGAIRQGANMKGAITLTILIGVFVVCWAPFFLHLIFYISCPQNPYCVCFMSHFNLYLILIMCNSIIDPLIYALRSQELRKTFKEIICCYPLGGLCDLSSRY
Assay: cAMP functional assay for agonist/antagonist status, MC4-R
Assay type: cell-based
Conditions: cAMP response ratio to NDP-α-MSH
Where a SMILES comes first, the peptide text is derived from it. Bridges are numbered along the chain shown (N, C = ends). [ ]: non-standard residue; d: D form. 1Nal = N[C@@H](Cc1cccc2ccccc12)C(=O)O
API doc: respond with a numeric literal and nothing else, no unit.

{"columns": ["Compound", "Target Desc", "efficacy relative to NDP-α-MSH, MC4-R"],
 "data": [
  ["CCNC(=O)[C@@H]1CCCCNC(=O)C[C@H](NC(C)=O)C(=O)N[C@@H](Cc2c[nH]cn2)C(=O)N[C@H](Cc2ccccc2)C(=O)N[C@@H](CCCNC(=N)N)C(=O)N[C@@H](Cc2c[nH]c3ccccc23)C(=O)N1", "hMC4-R (HEK-293 cells) (Homo sapiens)", 0.6]
]}

Now for the compound whose efficacy relative to NDP-α-MSH, MC4-R we want.
Exercise: Provide efficacy relative to NDP-α-MSH, MC4-R value for the following compound: CC(=O)N[C@H]1CC(=O)NCCCC[C@@H](C(=O)N(C)C)NC(=O)[C@H](Cc2cccc3ccccc23)NC(=O)[C@H](CCCNC(=N)N)NC(=O)[C@@H](Cc2ccccc2)NC(=O)[C@H](Cc2c[nH]c3ccccc23)NC1=O [Example 15] (Ac-DW[dF]R[1Nal]K-NMe2; lactam 1-6 (inferred))
Key: 0.9

----------
Measured efficacy relative to NDP-α-MSH, MC4-R by item
Target: hMC4-R (HEK-293 cells) (Homo sapiens)
Construct: expressed in transfected cells; host or cells: HEK-293
Experiment: cAMP functional assay for agonist/antagonist status, MC4-R
Type: cell-based
Conditions: cAMP response ratio to NDP-α-MSH
Where a SMILES comes first, the peptide text is derived from it. Bridges are numbered along the chain shown (N, C = ends). [ ]: non-standard residue; d: D form. 1Nal = N[C@@H](Cc1cccc2ccccc12)C(=O)O; Nle = CCCC[C@H](N)C(=O)O
Reply: number alone, nothing else.

Field: example entries. Status: answers known.
{"columns": ["Compound", "efficacy relative to NDP-α-MSH, MC4-R"],
 "data": [
  ["CCNC(=O)[C@@H]1CCCCNC(=O)C[C@H](NC(C)=O)C(=O)N[C@@H](Cc2c[nH]c3ccccc23)C(=O)N[C@H](Cc2ccccc2)C(=O)N[C@@H](CCCNC(=N)N)C(=O)N[C@@H](Cc2cccc3ccccc23)C(=O)N1 [Example 14] (Ac-DW[dF]R[1Nal]K-NHEt; lactam 1-6 (inferred))", 0.7],
  ["CC(=O)N[C@H]1CC(=O)NCCCC[C@@H](C(=O)N(C)C)NC(=O)[C@H](Cc2c[nH]c3ccccc23)NC(=O)[C@H](CCCNC(=N)N)NC(=O)[C@@H](Cc2ccccc2)NC(=O)[C@H](Cc2c[nH]cn2)NC1=O [Example 13]", 0.6],
  ["CCCC[C@H](NC(C)=O)C(=O)N[C@H]1CC(=O)NCCCC[C@@H](C(=O)NCC)NC(=O)[C@H](Cc2cccc3ccccc23)NC(=O)[C@H](CCCNC(=N)N)NC(=O)[C@@H](Cc2ccccc2)NC(=O)[C@H](Cc2c[nH]c3ccccc23)NC1=O [Example 18] (Ac-[Nle]DW[dF]R[1Nal]K-NHEt; lactam 2-7 (inferred))", 0.6]
]}

Below: the item to evaluate.
Exercise: Identify efficacy relative to NDP-α-MSH, MC4-R associated with the compound CC(=O)N[C@H]1CC(=O)NCCCC[C@@H](C(=O)N(C)C)NC(=O)[C@H](Cc2cccc3ccccc23)NC(=O)[C@H](CCCNC(=N)N)NC(=O)[C@@H](Cc2ccccc2)NC(=O)[C@H](Cc2c[nH]cn2)NC1=O [Example 17] (Ac-DH[dF]R[1Nal]K-NMe2; lactam 1-6 (inferred))
Key: 0.93

----------
As shown below, each of these compounds has a reported pKi value.
Molecular target: MC3-R (Homo sapiens, UniProt P41968)
Construct: expressed in transfected cells; host or cells: HEK-293
Test: Competitive inhibition binding assay using [I125]-NDP-α-MSH, hMC3-R
Settings: radioligand [I125]-NDP-α-MSH, HEK-293 membranes; read-out: Ki (NDP-α-MSH) MC3-R
Where a SMILES comes first, the peptide text is derived from it. Bridges are numbered along the chain shown (N, C = ends). [ ]: non-standard residue; d: D form. 1Nal = N[C@@H](Cc1cccc2ccccc12)C(=O)O
Worth noting: pKi values are minus log10 of concentrations stated in mol/L.

{"columns": ["Compound", "pKi"],
 "data": [
  ["CCNC(=O)[C@@H]1CCCCNC(=O)C[C@H](NC(C)=O)C(=O)N[C@@H](Cc2c[nH]c3ccccc23)C(=O)N[C@H](Cc2ccccc2)C(=O)N[C@@H](CCCNC(=N)N)C(=O)N[C@@H](Cc2cccc3ccccc23)C(=O)N1 [Example 14] (Ac-DW[dF]R[1Nal]K-NHEt; lactam 1-6 (inferred))", 6.05]
]}

Exercise: Give reported pKi value for CCNC(=O)[C@@H]1CCCCNC(=O)C[C@H](NC(C)=O)C(=O)N[C@@H](Cc2c[nH]cn2)C(=O)N[C@H](Cc2ccccc2)C(=O)N[C@@H](CCCNC(=N)N)C(=O)N[C@@H](Cc2cccc3ccccc23)C(=O)N1 [Example 16] (Ac-DH[dF]R[1Nal]K-NHEt; lactam 1-6 (inferred))
Key: 6.34

Exercise: Fill in reported pKi for this entry: CC(=O)N[C@H]1CC(=O)NCCCC[C@@H](C(=O)N(C)C)NC(=O)[C@H](Cc2cccc3ccccc23)NC(=O)[C@H](CCCNC(=N)N)NC(=O)[C@@H](Cc2ccccc2)NC(=O)[C@H](Cc2c[nH]c3ccccc23)NC1=O [Example 15] (Ac-DW[dF]R[1Nal]K-NMe2; lactam 1-6 (inferred))
Key: 6.02

Exercise: Quick one: give measured pKi for CC(=O)N[C@H]1CC(=O)NCCCC[C@@H](C(=O)N(C)C)NC(=O)[C@H](Cc2c[nH]c3ccccc23)NC(=O)[C@H](CCCNC(=N)N)NC(=O)[C@@H](Cc2ccccc2)NC(=O)[C@H](Cc2c[nH]cn2)NC1=O
Key: 6.81

Exercise: Given the compound CCCC[C@H](NC(C)=O)C(=O)N[C@H]1CC(=O)NCCCC[C@@H](C(=O)NCC)NC(=O)[C@H](Cc2c[nH]c3ccccc23)NC(=O)[C@H](CCCNC(=N)N)NC(=O)[C@@H](Cc2ccccc2)NC(=O)[C@H](Cc2c[nH]cn2)NC1=O , write its reported pKi.
Key: 7.96

Exercise: Indicate its recorded pKi; the compound in question is CCCC[C@H](NC(C)=O)C(=O)N[C@H]1CC(=O)NCCCC[C@@H](C(=O)N(C)C)NC(=O)[C@H](Cc2c[nH]c3ccccc23)NC(=O)[C@H](CCCNC(=N)N)NC(=O)[C@@H](Cc2ccccc2)NC(=O)[C@H](Cc2c[nH]cn2)NC1=O
Key: 8.10
